Reported microsomal CLint values are given for each entry in this list.
# test summary: Metabolic stability in human liver microsomes assessed as intrinsic clearance
# Type: ADME, Microsome

Some entries whose results are on file:
smiles representation | quantity kind | value observed
Nc1noc2ccc(-n3nc(C(F)(F)F)cc3C(=O)NC3CCN(c4ccccc4CN4CCC[C@H]4O)CC3)cc12 | microsomal CLint | 40 µL/min/mg
CS(=O)(=O)c1ccccc1N1CCC(NC(=O)c2cc(C(F)(F)F)nn2-c2ccc3onc(N)c3c2)CC1 | microsomal CLint | 51 µL/min/mg
Nc1noc2ccc(-n3nc(C(F)(F)F)cc3C(=O)NC3CCN(c4ccccc4CN4CCCC4)CC3)cc12 | microsomal CLint | 29 µL/min/mg

Ask: Which microsomal CLint value belongs to CCN(C)Cc1ccccc1N1CCC(NC(=O)c2cc(C(F)(F)F)nn2-c2ccc3onc(N)c3c2)CC1 ?
Reply: 29 µL/min/mg
